# Tested on: Serine/threonine-protein kinase B-raf (Homo sapiens), P15056 [V600E];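 further: mean inhibition of the BRAF V599E mutant, from GSK PKIS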
# Sequence (P15056 whole entry V600E): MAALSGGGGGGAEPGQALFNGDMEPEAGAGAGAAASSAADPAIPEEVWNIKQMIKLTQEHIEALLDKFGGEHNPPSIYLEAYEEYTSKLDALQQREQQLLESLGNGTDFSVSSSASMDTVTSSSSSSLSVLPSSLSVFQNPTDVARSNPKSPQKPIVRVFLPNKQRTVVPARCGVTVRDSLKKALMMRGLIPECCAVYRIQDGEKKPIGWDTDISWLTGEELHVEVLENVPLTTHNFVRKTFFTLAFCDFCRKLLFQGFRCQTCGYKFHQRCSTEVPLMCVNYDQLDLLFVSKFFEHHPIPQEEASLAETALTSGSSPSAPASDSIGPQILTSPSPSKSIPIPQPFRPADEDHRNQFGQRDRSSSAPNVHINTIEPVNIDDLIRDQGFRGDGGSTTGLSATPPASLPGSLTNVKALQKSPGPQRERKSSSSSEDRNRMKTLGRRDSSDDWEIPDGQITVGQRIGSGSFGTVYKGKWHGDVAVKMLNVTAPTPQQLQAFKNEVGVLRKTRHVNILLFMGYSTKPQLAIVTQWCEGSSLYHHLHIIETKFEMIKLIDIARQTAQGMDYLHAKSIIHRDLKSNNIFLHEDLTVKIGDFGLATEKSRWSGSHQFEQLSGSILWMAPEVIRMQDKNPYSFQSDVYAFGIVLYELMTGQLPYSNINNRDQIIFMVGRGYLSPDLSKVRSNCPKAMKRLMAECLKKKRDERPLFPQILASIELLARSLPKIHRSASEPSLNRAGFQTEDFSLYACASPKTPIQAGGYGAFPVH
# EXPERIMENTAL_PARAMETERS: at 0.1 µM
# Description: GSK_PKIS: BRAF (V599E mutant) mean inhibition at 0.1 uM [Nanosyn]
RECORDED_ENDPOINT: inhibition (%)

- SMI: "CCCNc1cccc(-n2ncc3c(N/N=C/c4ccncc4)ncnc32)c1"
  UNIT_OF_MEASUREMENT: "%"
  OBSERVED_MEASUREMENT: 0.21
- SMI: "CS(=O)(=O)CCNCc1ccoc1-c1ccc2ncnc(Nc3ccc(OCc4ccccc4)cc3)c2c1"
  UNIT_OF_MEASUREMENT: "%"
  OBSERVED_MEASUREMENT: 1.75
- SMI: "CCn1c(-c2nonc2N)nc2cncc(C(=O)NCCNC)c21"
  UNIT_OF_MEASUREMENT: "%"
  OBSERVED_MEASUREMENT: 4.48
- SMI: "CNC(=O)c1sc(-n2cnc3cc(OC)c(OC)cc32)cc1OCc1ccccc1C(F)(F)F"
  UNIT_OF_MEASUREMENT: "%"
  OBSERVED_MEASUREMENT: 4.01
- SMI: "CC(C)c1ccc(-c2cc(-c3c[nH]nc3-c3ccccn3)ccn2)cc1"
  UNIT_OF_MEASUREMENT: "%"
  OBSERVED_MEASUREMENT: 0

====

# STUDY_TARGET: Casein kinase II subunit alpha (Homo sapiens);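 further: reported value is the mean CK2 inhibition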
# EXPERIMENTAL_PARAMETERS: at 1 µM

- MOLECULE: "CCN1CCC(C(=O)Nc2n[nH]c3nnc(-c4cccc(F)c4F)cc23)CC1"
  inhibition: "-0.24%"
- MOLECULE: "Cc1cc(O)cc(C)c1/C=C/c1cncc(C(=O)OC(C)(C)C)c1"
  inhibition: "7.86%"
- MOLECULE: "CCn1c(-c2nonc2N)nc2cncc(C(=O)NCCNC)c21"
  inhibition: "2.99%"
- MOLECULE: "CN1CCC(n2cnc(-c3ccc(F)cc3)c2-c2ccnc(NCCO)n2)CC1"
  inhibition: "13.2%"
- MOLECULE: "COc1cc2c(cc1Nc1nc(Nc3cccc(F)c3C(N)=O)c3cc[nH]c3n1)N(C(=O)CN1CCN(C(C)C)CC1)CC2"
  inhibition: "10.1%"
- MOLECULE: "COc1ccc(Nc2ncc(-c3ccccc3)o2)cc1OC"
  inhibition: "6.83%"
- MOLECULE: "N#Cc1ccc2c(-c3ccnc(NC4CC4)n3)c(-c3ccc(F)cc3)nn2c1"
  inhibition: "1.8%"
- MOLECULE: "CC1=C(C(=O)Nc2ccc3[nH]nc(C)c3c2)C(c2ccc(C(F)(F)F)cc2)CC(=O)N1 (stereo not given)"
  inhibition: "2.97%"
- MOLECULE: "CS(=O)(=O)CCNCc1ccc(-c2ccc3ncnc(Nc4ccc(OCc5cccc(C(F)(F)F)c5)cc4)c3c2)o1"
  inhibition: "4.66%"
- MOLECULE: "CNC(=O)c1cncc(/C=C/c2ccccc2C)c1"
  inhibition: "7.63%"

====

# STUDY_TARGET: Tyrosine-protein kinase Lyn (Homo sapiens) (UniProt P07948);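 further: mean inhibition of the LYN B splice variant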
# Sequence (P07948 2-512 limits assumed): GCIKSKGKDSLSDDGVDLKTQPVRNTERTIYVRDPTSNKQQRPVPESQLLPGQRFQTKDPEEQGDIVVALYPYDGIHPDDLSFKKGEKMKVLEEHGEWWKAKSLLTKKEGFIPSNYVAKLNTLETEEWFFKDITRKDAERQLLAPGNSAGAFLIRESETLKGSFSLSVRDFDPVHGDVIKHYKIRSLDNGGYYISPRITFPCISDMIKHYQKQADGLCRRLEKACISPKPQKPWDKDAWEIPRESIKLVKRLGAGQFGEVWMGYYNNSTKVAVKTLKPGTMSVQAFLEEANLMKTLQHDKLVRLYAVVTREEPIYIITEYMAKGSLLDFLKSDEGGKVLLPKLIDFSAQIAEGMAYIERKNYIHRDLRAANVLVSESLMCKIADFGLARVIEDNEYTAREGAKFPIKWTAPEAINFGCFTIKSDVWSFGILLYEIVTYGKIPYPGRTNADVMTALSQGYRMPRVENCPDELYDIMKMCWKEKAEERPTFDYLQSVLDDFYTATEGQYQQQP
# EXPERIMENTAL_PARAMETERS: at 0.1 µM
# Description: GSK_PKIS: LYN B (splice variant) mean inhibition at 0.1 uM [Nanosyn]
RECORDED_ENDPOINT: inhibition (%)

- SMI: "COc1ccccc1-c1cc(/C=C2\\C(=O)Nc3ncc(Br)cc32)cc(Br)c1O"
  STUDY_TARGET: "Tyrosine-protein kinase Lyn (Homo sapiens) (UniProt P07948)"
  RECORDED_ENDPOINT: "inhibition"
  UNIT_OF_MEASUREMENT: "%"
  OBSERVED_MEASUREMENT: 4.58
- SMI: "COc1ccc(-c2nn3ncccc3c2-c2ccnc(Nc3ccc(F)c(F)c3)n2)cc1"
  STUDY_TARGET: "Tyrosine-protein kinase Lyn (Homo sapiens) (UniProt P07948)"
  RECORDED_ENDPOINT: "inhibition"
  UNIT_OF_MEASUREMENT: "%"
  OBSERVED_MEASUREMENT: 3.08
- SMI: "CCS(=O)(=O)c1ccc(OC)c(Nc2ncc(-c3cccc(F)c3)o2)c1"
  STUDY_TARGET: "Tyrosine-protein kinase Lyn (Homo sapiens) (UniProt P07948)"
  RECORDED_ENDPOINT: "inhibition"
  UNIT_OF_MEASUREMENT: "%"
  OBSERVED_MEASUREMENT: 26.3
- SMI: "CC1(C)CC(n2cnc(-c3ccc(F)cc3)c2-c2ccnc(N)n2)CC(C)(C)N1"
  STUDY_TARGET: "Tyrosine-protein kinase Lyn (Homo sapiens) (UniProt P07948)"
  RECORDED_ENDPOINT: "inhibition"
  UNIT_OF_MEASUREMENT: "%"
  OBSERVED_MEASUREMENT: -0.62
- SMI: "CNC(=O)c1cncc(/C=C/c2ccccc2C)c1"
  STUDY_TARGET: "Tyrosine-protein kinase Lyn (Homo sapiens) (UniProt P07948)"
  RECORDED_ENDPOINT: "inhibition"
  UNIT_OF_MEASUREMENT: "%"
  OBSERVED_MEASUREMENT: 3.73

====

# STUDY_TARGET: Phosphorylase b kinase gamma catalytic chain, liver/testis isoform (Homo sapiens) (UniProt P15735);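 further: reported value is the mean inhibition of PHKG2 from the GSK_PKIS screening set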
# Sequence (whole entry): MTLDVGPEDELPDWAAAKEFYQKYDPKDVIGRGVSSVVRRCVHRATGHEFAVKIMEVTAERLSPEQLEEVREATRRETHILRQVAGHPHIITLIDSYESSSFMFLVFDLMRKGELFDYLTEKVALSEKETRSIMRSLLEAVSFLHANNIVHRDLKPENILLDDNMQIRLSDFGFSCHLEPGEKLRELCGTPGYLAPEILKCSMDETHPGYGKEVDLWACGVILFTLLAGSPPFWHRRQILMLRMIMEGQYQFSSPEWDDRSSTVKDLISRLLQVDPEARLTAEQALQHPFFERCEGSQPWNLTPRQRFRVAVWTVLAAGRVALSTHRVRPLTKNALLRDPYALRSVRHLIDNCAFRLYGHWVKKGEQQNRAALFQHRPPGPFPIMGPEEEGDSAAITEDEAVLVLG
# EXPERIMENTAL_PARAMETERS: at 1 µM
In this section, each of the compounds is paired with its reported inhibition.
RECORDED_ENDPOINT: inhibition (%)

- SMI: "COc1c(C(N)=O)cc(-c2ccc(Cl)cc2)cc1-c1ccc(S(N)(=O)=O)cc1"
  RECORDED_ENDPOINT: "inhibition"
  UNIT_OF_MEASUREMENT: "%"
  OBSERVED_MEASUREMENT: 5.17
- SMI: "COc1ccc2ncn(-c3cc(O[C@H](C)c4ccccc4C(F)(F)F)c(C(N)=O)s3)c2c1"
  RECORDED_ENDPOINT: "inhibition"
  UNIT_OF_MEASUREMENT: "%"
  OBSERVED_MEASUREMENT: 0.1
- SMI: "CCOc1ccc2c(-c3ccnc(Nc4cc(OC)cc(C(F)(F)F)c4)n3)cnn2n1"
  RECORDED_ENDPOINT: "inhibition"
  UNIT_OF_MEASUREMENT: "%"
  OBSERVED_MEASUREMENT: 0.99
- SMI: "O=C(O[C@H]1CN[C@H](C#Cc2cc3ncnc(Nc4ccc5c(cnn5Cc5ccccc5)c4)c3s2)C1)N1CCOCC1"
  RECORDED_ENDPOINT: "inhibition"
  UNIT_OF_MEASUREMENT: "%"
  OBSERVED_MEASUREMENT: -1.47
- SMI: "CN1CCC(n2cnc(-c3ccc(F)cc3)c2-c2ccnc(NCCO)n2)CC1"
  RECORDED_ENDPOINT: "inhibition"
  UNIT_OF_MEASUREMENT: "%"
  OBSERVED_MEASUREMENT: 7.31
- SMI: "Cc1cc(O)cc(C)c1/C=C/c1cncc(C(N)=O)c1"
  RECORDED_ENDPOINT: "inhibition"
  UNIT_OF_MEASUREMENT: "%"
  OBSERVED_MEASUREMENT: 0.42
- SMI: "COc1ccccc1-c1cc(/C=C2\\C(=O)Nc3ncc(Br)cc32)cc(Br)c1O"
  RECORDED_ENDPOINT: "inhibition"
  UNIT_OF_MEASUREMENT: "%"
  OBSERVED_MEASUREMENT: 3.85
- SMI: "Cn1c(-c2nonc2N)nc2cnccc21"
  RECORDED_ENDPOINT: "inhibition"
  UNIT_OF_MEASUREMENT: "%"
  OBSERVED_MEASUREMENT: 1.59
- SMI: "CCN1CCC(C(=O)Nc2n[nH]c3nnc(-c4cccc(F)c4F)cc23)CC1"
  RECORDED_ENDPOINT: "inhibition"
  UNIT_OF_MEASUREMENT: "%"
  OBSERVED_MEASUREMENT: -1.05
- SMI: "CC(C)c1ccc(-c2cc(-c3c[nH]nc3-c3ccccn3)ccn2)cc1"
  RECORDED_ENDPOINT: "inhibition"
  UNIT_OF_MEASUREMENT: "%"
  OBSERVED_MEASUREMENT: -0.76
- SMI: "CNC(=O)c1cncc(/C=C/c2ccccc2C)c1"
  RECORDED_ENDPOINT: "inhibition"
  UNIT_OF_MEASUREMENT: "%"
  OBSERVED_MEASUREMENT: 7.42
- SMI: "c1cnn2ncc(-c3ccnc(NCCCN4CCOCC4)n3)c2c1"
  RECORDED_ENDPOINT: "inhibition"
  UNIT_OF_MEASUREMENT: "%"
  OBSERVED_MEASUREMENT: 2.46
- SMI: "CCCNc1cccc(-n2ncc3c(N/N=C/c4ccncc4)ncnc32)c1"
  RECORDED_ENDPOINT: "inhibition"
  UNIT_OF_MEASUREMENT: "%"
  OBSERVED_MEASUREMENT: 7.69
- SMI: "Cc1nnc(-c2cccc(-c3ccc(C(=O)NCC4CC4)cc3)c2)o1"
  RECORDED_ENDPOINT: "inhibition"
  UNIT_OF_MEASUREMENT: "%"
  OBSERVED_MEASUREMENT: 7.38
- SMI: "CCn1c(-c2nonc2N)nc2cncc(C(=O)NCCNC)c21"
  RECORDED_ENDPOINT: "inhibition"
  UNIT_OF_MEASUREMENT: "%"
  OBSERVED_MEASUREMENT: 6.69
- SMI: "COc1cc(Nc2ncc(-c3ccccc3)o2)cc(OC)c1"
  RECORDED_ENDPOINT: "inhibition"
  UNIT_OF_MEASUREMENT: "%"
  OBSERVED_MEASUREMENT: 5.45
- SMI: "Cc1c2ccc(N(C)c3ccnc(Nc4cccc(S(N)(=O)=O)c4)n3)cc2nn1C"
  RECORDED_ENDPOINT: "inhibition"
  UNIT_OF_MEASUREMENT: "%"
  OBSERVED_MEASUREMENT: 3.28
- SMI: "Cc1ccc(-c2cc3c(NC(=O)C4CC4)ncnc3o2)cc1"
  RECORDED_ENDPOINT: "inhibition"
  UNIT_OF_MEASUREMENT: "%"
  OBSERVED_MEASUREMENT: 1.83
- SMI: "CS(=O)(=O)CCNCc1ccoc1-c1ccc2ncnc(Nc3ccc(OCc4ccccc4)cc3)c2c1"
  RECORDED_ENDPOINT: "inhibition"
  UNIT_OF_MEASUREMENT: "%"
  OBSERVED_MEASUREMENT: 0.15
- SMI: "COc1cc2c(cc1Nc1nc(Nc3cccc(F)c3C(N)=O)c3cc[nH]c3n1)N(C(=O)CN1CCN(C(C)C)CC1)CC2"
  RECORDED_ENDPOINT: "inhibition"
  UNIT_OF_MEASUREMENT: "%"
  OBSERVED_MEASUREMENT: 5.63
- SMI: "N#Cc1cccc(Nc2ncc(-c3ccccc3)o2)c1"
  RECORDED_ENDPOINT: "inhibition"
  UNIT_OF_MEASUREMENT: "%"
  OBSERVED_MEASUREMENT: 6.04
